Answer each item with its documented inhibition at 3 µM.
system: KDR (Homo sapiens (Human))
Sequence (P35968 20-1356, species assumed): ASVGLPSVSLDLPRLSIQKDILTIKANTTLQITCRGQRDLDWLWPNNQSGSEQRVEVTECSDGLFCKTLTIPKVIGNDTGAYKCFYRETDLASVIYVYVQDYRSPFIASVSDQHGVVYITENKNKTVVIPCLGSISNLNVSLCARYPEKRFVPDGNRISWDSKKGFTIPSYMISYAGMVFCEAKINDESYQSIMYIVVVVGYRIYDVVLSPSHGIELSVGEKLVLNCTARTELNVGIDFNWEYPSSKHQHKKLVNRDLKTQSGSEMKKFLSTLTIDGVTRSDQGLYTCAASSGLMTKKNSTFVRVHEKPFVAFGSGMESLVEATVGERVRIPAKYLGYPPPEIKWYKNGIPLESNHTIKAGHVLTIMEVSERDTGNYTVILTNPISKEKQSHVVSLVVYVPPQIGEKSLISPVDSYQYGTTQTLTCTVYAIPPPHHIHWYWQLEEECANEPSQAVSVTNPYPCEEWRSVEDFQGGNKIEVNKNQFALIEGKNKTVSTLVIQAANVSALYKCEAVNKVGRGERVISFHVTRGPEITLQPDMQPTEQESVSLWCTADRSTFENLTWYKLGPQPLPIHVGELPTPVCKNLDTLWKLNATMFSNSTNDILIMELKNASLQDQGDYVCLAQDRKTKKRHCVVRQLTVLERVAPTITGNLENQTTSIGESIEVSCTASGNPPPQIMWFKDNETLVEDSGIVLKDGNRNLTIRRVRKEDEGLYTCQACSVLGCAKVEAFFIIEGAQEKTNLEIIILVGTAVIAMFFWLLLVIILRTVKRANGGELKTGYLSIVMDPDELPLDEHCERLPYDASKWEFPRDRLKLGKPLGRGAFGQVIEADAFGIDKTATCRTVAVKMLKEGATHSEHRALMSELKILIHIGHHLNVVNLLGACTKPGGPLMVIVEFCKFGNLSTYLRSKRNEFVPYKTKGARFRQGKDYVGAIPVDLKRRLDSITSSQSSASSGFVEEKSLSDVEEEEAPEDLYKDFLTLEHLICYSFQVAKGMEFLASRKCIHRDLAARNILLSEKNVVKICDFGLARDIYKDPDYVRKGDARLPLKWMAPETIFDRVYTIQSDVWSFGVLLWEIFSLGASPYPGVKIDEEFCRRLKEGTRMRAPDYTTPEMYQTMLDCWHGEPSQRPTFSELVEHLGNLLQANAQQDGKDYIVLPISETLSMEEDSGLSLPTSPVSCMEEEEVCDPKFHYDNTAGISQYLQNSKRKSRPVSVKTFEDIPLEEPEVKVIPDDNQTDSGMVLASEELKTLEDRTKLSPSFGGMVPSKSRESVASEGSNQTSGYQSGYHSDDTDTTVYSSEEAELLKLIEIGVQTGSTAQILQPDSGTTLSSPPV
assay-overview: Enzyme-inhibiting activity test of kinases other than Trk (selectivity experiment): KDR
Type: biochemical
run-parameters: concentration of 3 μM; read-out: Inhibition rate (%) KDR
Answers are plain numbers, in %.

Examples with their reported inhibition at 3 µM follow.
compound: CS(=O)(=O)c1ccc(C(F)(F)F)cc1NC(=O)Nc1cnc(Oc2ccc(-c3cc(F)cnc3N)cc2)nc1 [Example 15-96]
inhibition at 3 µM, %: 2

compound: Cn1nccc1-c1ccc(C(F)(F)F)cc1NC(=O)Nc1cnc(Oc2ccc(-c3cnn4ccc(N5CCC5)nc34)cc2)nc1 [Example 21-2]
inhibition at 3 µM, %: 1

compound: Cn1nccc1-c1ccc(C(F)(F)F)cc1NC(=O)Nc1cnc(Oc2ccc(-c3cc(Cl)cnc3N)cc2)nc1 [Example 13-1]
inhibition at 3 µM, %: 7.5

Provide the reported inhibition at 3 µM of each entry below, same order.
1. CS(=O)(=O)c1ccc(C(F)(F)F)cc1NC(=O)Nc1cnc(Oc2ccc(-c3cc(Cl)cnc3N)cc2)nc1 [Example 15-104]
2. Nc1ncc(Cl)cc1-c1ccc(Oc2ncc(NC(=O)Nc3cc(C(F)(F)F)ccc3-n3cc(Cl)cn3)cn2)cc1 [Example 15-63]
3. CCNc1ccn2ncc(-c3ccc(Oc4ncc(NC(=O)Nc5cc(C(F)(F)F)ccc5-c5cccc(C)c5)cn4)cc3)c2n1 [Example 21-67]
4. Cc1ccn2ncc(-c3ccc(Oc4ncc(NC(=O)Nc5cc(C(F)(F)F)ccc5-c5cccnc5)cn4)cc3)c2n1 [Example 21-65]

1. 18
2. 0
3. 0
4. 19

meta.source: patent US10300060B2
